test: small-molecule microarray binders of probe aWnt5a, primary screen, biochemical, biotinylated probe, 635/667 nm fluorescence (AID 1113); details: higher = more signal;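 also: score merges 667 nm fluorescence intensity with signal-to-noise per printed feature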
assay_readout: composite z-score
Form field (numeric): enter value without unit.

Take a look at these entries with their results.
compound="C=C1C=C(Br)C2(OCCCO2)[C@H]2OC12 (some centres not stated)" observed=-0.176
compound=CO[C@H]1O[C@H](CO)[C@@H](OC(=O)Nc2ccccc2)[C@H](OC(=O)Nc2ccc3c(c2)OCO3)[C@H]1OC(=O)Nc1ccc2c(c1)OCO2 observed=0.0973
compound=COCCOC(=O)N1C(=O)[C@@]2(c3ccccc31)[C@H](C(=O)Nc1nc3ccccc3s1)[C@H]1C(=O)O[C@H](c3ccccc3)[C@H](c3ccccc3)N1[C@@H]2c1ccc(O)cc1 observed=0.0044
compound=C#CCOc1ccc(C[C@H]2C(=O)O[C@H](Cc3ccccc3)[C@H](/C=C/C3CC3)N2CC#C)cc1 observed=-0.176
compound=C=CCN1C(=O)[C@@]2(O[C@@H](CCO)[C@H]([Si](C)(C)c3ccc(OC)cc3)[C@H]2C)c2cc(N(C=O)c3ccccc3)ccc21 observed=-0.0643
compound=COCCOC(=O)N1C(=O)[C@@]2(c3cc(C#CCCO)ccc31)[C@H](c1ccccc1OCCO)N1[C@H](c3ccccc3)[C@H](c3ccccc3)OC(=O)[C@H]1[C@@H]2C(=O)NC[C@H](O)c1ccccc1 observed=-0.0512

Kindly consider the entry below.
// composite z-score lookup, key: CO[C@H]1O[C@H](CO)[C@@H](OC(=O)Nc2ccccc2)[C@H](OC(=O)Nc2ccccc2-c2ccccc2)[C@@H]1OC(=O)Nc1ccccc1-c1ccccc1
0.131
